Catalogue of log10 GI50 readings, one per entry.
test system: Ba/F3 cells expressing EGFR mutations; assay: Cell proliferation assay, Ba/F3 cells expressing EGFR mutations (CellTiter-Glo, 72 hours); type: cell-based; conditions: BaF3 cells, EGFR L858R-T790M, CellTiter-Glo, read-out: L858R-T790M/BaF3 GI50
Scale: log10; quantity: GI50; unit before log: nM

Cn1ncc2c1OCCN1CC3CCC(C3)(C1)n1c(nc3ccc(N4CCOCC4)cc31)NC(=O)c1cc-2c(=O)n(C)c1 (centres unmarked) [Example A62]; 0.64

log10 GI50 for CN(C)C1CN(c2ccc3nc4n(c3c2)C23CCC(CN(CCOc5c(cnn5C)-c5cc(cn(C)c5=O)C(=O)N4)C2)C3)C1 (single isomer, unassigned) [Example A65B] ?
1.04

log10 GI50 for CN1CCOC2(C1)CN(c1ccc3nc4n(c3c1)C13CCC(CN(CCOc5c(cnn5C)-c5cc(cn(C)c5=O)C(=O)N4)C1)C3)C2 (single isomer, unassigned) [Example A86A] ?
2.56
